system.name: pre-pro-insulin glargine
For each entry below, report its Yield value.

Some proteins with known Yield results, for comparison:
Return the recorded Yield value; entry: trypsin variant SEQ ID NO: 108 (protein) IVGGYTCAANSIPYQVSLNSGSHRCGGSLINSQWVVSAAHCYKPRIQVRLGEHNIDVLEGNEQFINAAKIITHPNFNPNTLDNDIMLIKLSSPATLNSAVATVSLPTSCAAAGTECLISGWGNTCSSGSSMPSLLQCLKAPVLSDSSCKSSYPGQITGNMICVGFLEGGADACQGDSGGPVVCNGQLQGIVSSGYGCAQKNKPGVYTKVCNYVNWIQQTIAAN
> 90%

Look up and state reported Yield for trypsin variant SEQ ID NO: 113 (protein) IVGGYTCAANSIPYQVSLNSGSHRCGGSLINSQWVVSAAHCYKPRIQVRLGEHNIHVLEGNEQFINAAKIITHPNFNGNTLDNDIMLIKLSSPATLNSAVATVSLPTSCAAAGTECLISGWGNTASSGSSYPSLLQCLKAPVLSDSSCKSSYPGQITGNMICVGFLEGGADACQGDSGGPVVCNGQLQGIVSSGYGCAQKNKPGVYTKVCNYVNWIQQTIAAN
> 90%

Give reported Yield value for trypsin variant SEQ ID NO: 118 (protein) IVGGYTCAANSIPYQVSLNSGSHRCGGSLINSQWVVSAAHCYKPRIQVRLGEHNIHVLEGNEQFINAAKIITHPNFNGNTLDNDIMLIKLSSPATLNSHVATVSLPTSCAAAGTECLISGWGNTASSGSSMPSLLQCLKAPVLSDSSCKSSYPGQITGNMICVGFLEGGADACQGDSGGPVVCNGQLQGIVSSGYGCAQKNKPGVYTKVCNYVNWIQQTIAAN
> 90%

Specify measured Yield for trypsin variant SEQ ID NO: 85 (protein) IVGGYTCAANSIPYQVSLNSGSHRCGGSLINSQWVVSAAHCYKPRIQVRLGEHNIHVLEGNEQFINAAKIITHPNFNPNTLDNDIMLIKLSSPATLNSHVATVSLPTSCAAAGTECLISGWGNTCSSGSSMPSLLQCLKAPVLSDSSCKSSYPGQITGNMICVGFLEGGKDACQGDSGGPVVCNGQLQGIVSSGYGCAQKNKPGVYTKVCNYVNWIQQTIAAN .
> 90%

Supply Yield value. Item: trypsin variant SEQ ID NO: 107 (protein) IVGGYTCAANSIPYQVSLNSGSHRCGGSLINSQWVVSAAHCYKPRIQVRLGEHNIHVLEGNEQFINAAKIITHPNFNPNTLDNDIMLIKLSSPATLNSHVATVSLPTSCAAAGTECLISGWGNTCSSGSSMPSLLQCLKAPVLSDSSCKSSYPGQITGNMICVGFLEGGADACQGDSGGPVVCNGQLQGIVSSGYGCAQKNKPGVYTKVCNYVNWIQQTIAAN
> 90%

Complete the entry with Yield for trypsin variant SEQ ID NO: 84 (protein) IVGGYTCAANSIPYQVSLNSGSHRCGGSLINSQWVVSAAHCYKPRIQVRLGEHNIHVLEGNEQFINAAKIITHPNFNPNTLDNDIMLIKLSSPATLNSNVATVSLPTSCAAAGTECLISGWGNTSSSGSSMPSLLQCLKAPVLSDSSCKSSYPGQITGNMICVGFLEGGKDSCQGDSGGPVVCNGQLQGIVSSGYGCAQKNKPGVYTKVCNYVNWIQQTIAAN
> 90%

Please report Yield for the following protein: trypsin variant SEQ ID NO: 9 (protein) IVGGYTCAANSIPYQVSLNSGSHRCGGSLINSQWVVSAAHCYKSRIQVRLGEHNIDVLEGNEQFINAAKIITHPNFNGNTLDNDIMLIKLSSPATLNSYVATVSLPRSCAAAGTECLISGWGNTKSSGSSYPSLLQCLKAPVLSDSSCKSSYPGQITGNMICVGFLEGGKDACQGDSGGPVVCNGQLQGIVSSGYGCAQKNKPGVYTKVCNYVNWIQQTIAAN
> 90%

Read the entry trypsin variant SEQ ID NO: 86 (protein) IVGGYTCAANSIPYQVSLNSGSHRCGGSLINSQWVVSAAHCYKPRIQVRLGEHNIDVLEGNEQFINAAKIITHPNFNPNTLDNDIMLIKLSSPATLNSAVATVSLPTSCAAAGTECLISGWGNTSSSGSSMPSLLQCLKAPVLSDSSCKSSYPGQITGNMICVGFLEGGKDACQGDSGGPVVCNGQLQGIVSSGYGCAQKNKPGVYTKVCNYVNWIQQTIAAN and write its reported Yield.
> 80%

Supply Yield value. Item: trypsin variant SEQ ID NO: 74 (protein) IVGGYTCAANSIPYQVSLNSGSHRCGGSLINSQWVVSAAHCYKSRIQVRLGEHNIDVLEGNEQFINAAKIITHPNFNPNTLDNDIMLIKLSSPATLNSRVATVSLPRSCAAAGTECLISGWGNTKSSGSSYPSLLQCLKAPVLSDSSCKSSYPGQITGNMICVGFLEGGKDACQGDSGGPVVCNGQLQGIVSSGYGCAQKNKPGVYTKVCNYVNWIQQTIAAN
> 80%

***
Please indicate Yield recorded for trypsin variant SEQ ID NO: 87 (protein) IVGGYTCAANSIPYQVSLNSGSHRCGGSLINSQWVVSAAHCYKPRIQVRLGEHNIHVLEGNEQFINAAKIITHPNFNPNTLDNDIMLIKLSSPATLNSHVATVSLPTSCAAAGTECLISGWGNTSSSGSSMPSLLQCLKAPVLSDSSCKSSYPGQITGNMICVGFLEGGKDACQGDSGGPVVCNGQLQGIVSSGYGCAQKNKPGVYTKVCNYVNWIQQTIAAN
> 80%

Origin of measurements: patent US20230303994
